Test system: Wolbachia pipientis
Assay: Anti-Wolbachia Cell-Based Screen
Assay type: functional
Design: scale not given: in the data most compounds retested in dose-response had high values
Settings: 5 µM
Screen size: about 48,000 compounds; about 13,000 (27%) showed an effect of 50% or more. Some of the results follow.
quantity name: Percent Effect
Dear colleague, please send the value followed by its unit.

q: Percent Effect for COC(=O)N1CCCN(Cn2nc(C)c(Br)c2C)CC1 ?
a: 92.29%

q: Queued: CCn1c(CN2CCCN(C(=O)OC)CC2)nc2c(F)cccc21
a: -3.965%

q: Then COCC(=O)N1CCCN(Cc2c(C)nc3ccc(Cl)cn23)CC1 ?
a: -0.9556%

q: Consider next the molecule CC(C)NC(=O)N1CCN(S(=O)(=O)C2CC2)CC2(CC(=O)N(C)C2)C1 (stereo unspecified) in the same way.
a: -16.72%

q: Follow-up entry: COC(=O)N1CCCN(C(=O)c2cccc3cccnc23)CC1
a: -4.967%

q: Further, for COCC(=O)N1CCN(Cn2nc(C)c(Br)c2C)CC1 ?
a: 100.8%
